Catalogue of MCH-1R Activation % readings, one per entry.
- ASSAY SYSTEM: human MCH-1R (Homo sapiens, UniProt Q99705)
- Sequence (Q99705 whole entry): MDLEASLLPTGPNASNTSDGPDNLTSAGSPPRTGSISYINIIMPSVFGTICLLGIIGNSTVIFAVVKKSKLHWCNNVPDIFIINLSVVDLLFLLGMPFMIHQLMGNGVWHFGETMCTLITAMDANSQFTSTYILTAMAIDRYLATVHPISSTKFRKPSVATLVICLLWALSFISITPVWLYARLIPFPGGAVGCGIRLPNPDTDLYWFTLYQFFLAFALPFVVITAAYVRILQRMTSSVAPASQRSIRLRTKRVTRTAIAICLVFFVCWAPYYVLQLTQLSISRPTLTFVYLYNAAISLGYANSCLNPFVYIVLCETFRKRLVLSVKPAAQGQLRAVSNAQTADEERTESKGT
- MEASUREMENT PROTOCOL: Aequorin bioluminescence functional assay, MCH-1R
- ASSAY CONTEXT: Table 1; % Activation at 10 μM, aequorin functional assay

| SMILES STRUCTURE | ASSAY SYSTEM | UNITS SYMBOL | MCH-1R Activation % |
| --- | --- | --- | --- |
| CSCC[C@@H]1NC(=O)[C@@H](NC(C)=O)CSSC[C@@H](C(N)=O)NC(=O)[C@@H]2CCCN2C(=O)[C@H](CCCNC(=N)N)NC(=O)[C@H](Cc2ccc(O)cc2)NC(=O)[C@H](C(C)C)NC(=O)[C@H](CCCNC(=N)N)NC(=O)CNC(=O)[C@H](CC(C)C)NC1=O | human MCH-1R (Homo sapiens, UniProt Q99705) | % | 6.5 |
| CSCC[C@@H]1NC(=O)[C@@H](NC(=O)[C@H](CCCNC(=N)N)NC(C)=O)CSSC[C@@H](C(N)=O)NC(=O)[C@@H]2CCCN2C(=O)[C@H](CCCNC(=N)N)NC(=O)[C@H](Cc2ccc(O)cc2)NC(=O)[C@H](C(C)C)NC(=O)[C@H](CCCNC(=N)N)NC(=O)[C@@H](CO)NC(=O)[C@H](CC(C)C)NC1=O | human MCH-1R (Homo sapiens, UniProt Q99705) | % | 47 |
